# target or system: Prostaglandin G/H synthase 1 (Ovis aries)
# Sequence (P05979 whole entry): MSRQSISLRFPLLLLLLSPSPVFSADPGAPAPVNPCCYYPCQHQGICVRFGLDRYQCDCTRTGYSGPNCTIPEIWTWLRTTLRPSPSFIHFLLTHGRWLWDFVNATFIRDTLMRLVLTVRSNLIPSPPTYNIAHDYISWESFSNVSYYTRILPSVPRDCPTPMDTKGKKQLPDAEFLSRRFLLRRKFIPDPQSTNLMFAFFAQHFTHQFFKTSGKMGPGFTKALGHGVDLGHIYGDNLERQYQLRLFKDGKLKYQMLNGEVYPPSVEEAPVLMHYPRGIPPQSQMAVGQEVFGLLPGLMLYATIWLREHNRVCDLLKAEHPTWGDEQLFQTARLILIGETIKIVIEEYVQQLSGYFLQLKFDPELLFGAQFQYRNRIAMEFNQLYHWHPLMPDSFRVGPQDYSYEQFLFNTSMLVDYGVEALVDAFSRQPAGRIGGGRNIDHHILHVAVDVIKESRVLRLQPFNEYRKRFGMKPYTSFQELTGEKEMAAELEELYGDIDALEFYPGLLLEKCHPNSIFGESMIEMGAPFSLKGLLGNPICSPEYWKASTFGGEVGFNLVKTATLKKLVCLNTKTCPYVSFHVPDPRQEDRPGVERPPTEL
recorded metric: IC50 (µM)
Write it as a number; the unit µM goes unstated.

Ask: Entry NS(=O)(=O)c1ccc(-c2nnc(SCC(=O)O)n2-c2ccc(I)cc2)cc1 : reported IC50 = ?
Reply: 16
